Target: Pim-1 E142D (Homo sapiens, UniProt P11309, E142D)
Construct: hexahistidine tag (TEV-cleavable) (cleaved yes); made in house; host or cells: E. coli BL21(DE3)
Sequence (P11309 whole entry E142D): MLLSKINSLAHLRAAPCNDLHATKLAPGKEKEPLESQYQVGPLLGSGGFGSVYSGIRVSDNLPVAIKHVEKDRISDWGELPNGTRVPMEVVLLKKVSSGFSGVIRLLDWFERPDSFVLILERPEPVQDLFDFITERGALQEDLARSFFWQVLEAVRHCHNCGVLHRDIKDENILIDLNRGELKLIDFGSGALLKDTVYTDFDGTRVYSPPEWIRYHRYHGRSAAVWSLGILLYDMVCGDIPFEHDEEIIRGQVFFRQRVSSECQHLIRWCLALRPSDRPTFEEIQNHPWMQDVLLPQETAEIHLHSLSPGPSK
Assay: Inhibitor binding by temperature shift assay (SYPRO Orange)
Details: Pim-1 E142D 2 µM, compound 10 µM
Readout Label: ΔTm (K)

>  <Compound>
CC(C)[C@@H](CO)Nc1ccc2ncc(-c3cccc(OC(F)(F)F)c3)n2n1

>  <Result>
8.8

$$$$
>  <Compound>
CCC(CO)Nc1ccc2ncc(-c3cccc(OC(F)(F)F)c3)n2n1 (centres unmarked)

>  <Result>
8.1

$$$$
>  <Compound>
COCCNc1ccc2ncc(-c3cccc(Cl)c3)n2n1

>  <Result>
4.8

$$$$
>  <Compound>
Cn1c2c(c3ccc(Cl)c(Cl)c31)C(C#N)C1(CCOCC1)NC2=O (centres unmarked) [K01741a]

>  <Result>
3.3

$$$$
>  <Compound>
FC(F)(F)Oc1cccc(-c2cnc3ccc(NCC4CC4)nn23)c1

>  <Result>
6.4

$$$$

====

Target: Pim-1 E135K (Homo sapiens, UniProt P11309, E135K)
Construct: hexahistidine tag (TEV-cleavable) (cleaved yes); made in house; host or cells: E. coli BL21(DE3)
Sequence (P11309 whole entry E135K): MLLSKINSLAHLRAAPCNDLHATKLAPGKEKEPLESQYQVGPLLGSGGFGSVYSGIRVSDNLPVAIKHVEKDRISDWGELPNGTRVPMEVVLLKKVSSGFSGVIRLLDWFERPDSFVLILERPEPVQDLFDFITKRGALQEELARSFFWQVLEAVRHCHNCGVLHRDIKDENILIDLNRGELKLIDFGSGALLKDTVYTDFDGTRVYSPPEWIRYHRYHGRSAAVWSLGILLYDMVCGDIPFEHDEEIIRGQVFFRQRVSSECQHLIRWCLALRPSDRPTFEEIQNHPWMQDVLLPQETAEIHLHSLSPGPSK
Assay: Inhibitor binding by temperature shift assay (SYPRO Orange)
Details: Pim-1 E135K 2 µM, compound 10 µM
# ΔTm listing for each entry below

>  <Compound>
CC(=O)c1cccc(-c2cnc3ccc(N[C@H](CO)C(C)C)nn23)c1

>  <ΔTm (K)>
6.4

$$$$
>  <Compound>
FC(F)(F)Oc1cccc(-c2cnc3ccc(NCC4CC4)nn23)c1

>  <ΔTm (K)>
6.5

$$$$
>  <Compound>
CC(C)[C@@H](CO)Nc1ccc2ncc(-c3cccc(C(F)(F)F)c3)n2n1

>  <ΔTm (K)>
9.0

$$$$
>  <Compound>
CCC(CO)Nc1ccc2ncc(-c3cccc(OC(F)(F)F)c3)n2n1 (stereo not shown)

>  <ΔTm (K)>
7.5

$$$$
>  <Compound>
CC(C)[C@@H](CO)Nc1ccc2ncc(-c3cccc(Cl)c3)n2n1

>  <ΔTm (K)>
7.5

$$$$
>  <Compound>
COCCNc1ccc2ncc(-c3cccc(Cl)c3)n2n1

>  <ΔTm (K)>
5.9

$$$$
>  <Compound>
CC(C)[C@@H](CO)Nc1ccc2ncc(-c3cccc(OC(F)(F)F)c3)n2n1

>  <ΔTm (K)>
8.9

$$$$
>  <Compound>
CCN1CCC2(CC1)NC(=O)c1c(c3ccc(Cl)c(Cl)c3n1C)C2C#N (stereo not shown) [K01786a]

>  <ΔTm (K)>
8.2

$$$$
>  <Compound>
Clc1ccc(-c2cnc3ccc(NC4CCOCC4)nn23)cc1

>  <ΔTm (K)>
6.0

$$$$
>  <Compound>
Cn1c2c(c3ccc(Cl)c(Cl)c31)C(C#N)C1(CCOCC1)NC2=O (stereo not shown) [K01741a]

>  <ΔTm (K)>
5.2

$$$$

====

Molecular target: Pim-1 Y53H (Homo sapiens, UniProt P11309, Y53H)
Construct: hexahistidine tag (TEV-cleavable) (cleaved yes); made in house; host or cells: E. coli BL21(DE3)
Sequence (P11309 whole entry Y53H): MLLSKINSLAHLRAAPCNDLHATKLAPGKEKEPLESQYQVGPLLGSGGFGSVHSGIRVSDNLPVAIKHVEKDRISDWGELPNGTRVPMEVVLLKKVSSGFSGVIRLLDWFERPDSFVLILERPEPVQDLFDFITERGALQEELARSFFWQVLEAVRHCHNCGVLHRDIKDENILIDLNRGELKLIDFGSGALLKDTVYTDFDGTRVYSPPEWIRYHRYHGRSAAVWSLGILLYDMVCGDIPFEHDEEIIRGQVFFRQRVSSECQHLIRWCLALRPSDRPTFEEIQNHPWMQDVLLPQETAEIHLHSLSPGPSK
Test: Inhibitor binding by temperature shift assay (SYPRO Orange)
Settings: Pim-1 Y53H 2 µM, compound 10 µM
# ΔTm listing for each entry below
Readout Label: ΔTm

>  <Molecule>
CC(C)[C@@H](CO)Nc1ccc2ncc(-c3cccc(C(F)(F)F)c3)n2n1 [K00516]

>  <Result>
6.9 K

$$$$
>  <Molecule>
CC(C)[C@@H](CO)Nc1ccc2ncc(-c3cccc(OC(F)(F)F)c3)n2n1 [K00512]

>  <Result>
8.1 K

$$$$
>  <Molecule>
COCCNc1ccc2ncc(-c3cccc(Cl)c3)n2n1 [K00478]

>  <Result>
4.5 K

$$$$
>  <Molecule>
Clc1ccc(-c2cnc3ccc(NC4CCOCC4)nn23)cc1 [K00499]

>  <Result>
5.9 K

$$$$
>  <Molecule>
CCC(CO)Nc1ccc2ncc(-c3cccc(OC(F)(F)F)c3)n2n1 (stereo not drawn) [K00487]

>  <Result>
7.0 K

$$$$
>  <Molecule>
Cn1c2c(c3ccc(Cl)c(Cl)c31)C(C#N)C1(CCOCC1)NC2=O (stereo not drawn) [K01741a]

>  <Result>
3.3 K

$$$$

====

Target: Pim-1 E124Q (Homo sapiens, UniProt P11309, E124Q)
Construct: hexahistidine tag (TEV-cleavable) (cleaved yes); made in house; host or cells: E. coli BL21(DE3)
Sequence (P11309 whole entry E124Q): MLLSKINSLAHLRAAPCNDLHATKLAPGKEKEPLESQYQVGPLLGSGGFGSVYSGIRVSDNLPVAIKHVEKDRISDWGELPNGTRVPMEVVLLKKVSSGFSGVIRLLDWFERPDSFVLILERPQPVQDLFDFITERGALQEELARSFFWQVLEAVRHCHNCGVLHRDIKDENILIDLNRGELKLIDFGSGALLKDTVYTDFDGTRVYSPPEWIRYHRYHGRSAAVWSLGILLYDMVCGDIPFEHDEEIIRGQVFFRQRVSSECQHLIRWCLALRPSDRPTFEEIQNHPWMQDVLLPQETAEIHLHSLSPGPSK
Test: Inhibitor binding by temperature shift assay (SYPRO Orange)
Details: Pim-1 E124Q 2 µM, compound 10 µM

>  <Compound>
CC(C)[C@@H](CO)Nc1ccc2ncc(-c3cccc(OC(F)(F)F)c3)n2n1

>  <Unit Abbrev>
K

>  <ΔTm>
8.5

$$$$
>  <Compound>
Clc1ccc(-c2cnc3ccc(NC4CCOCC4)nn23)cc1

>  <Unit Abbrev>
K

>  <ΔTm>
5.6

$$$$
>  <Compound>
CCN1CCC2(CC1)NC(=O)c1c(c3ccc(Cl)c(Cl)c3n1C)C2C#N (stereo not drawn) [K01786a]

>  <Unit Abbrev>
K

>  <ΔTm>
7.2

$$$$

====

Target: Pim-1 wild type (Homo sapiens, UniProt P11309)
Construct: hexahistidine tag (TEV-cleavable) (cleaved yes); made in house; host or cells: E. coli BL21(DE3)
Sequence (P11309 whole entry): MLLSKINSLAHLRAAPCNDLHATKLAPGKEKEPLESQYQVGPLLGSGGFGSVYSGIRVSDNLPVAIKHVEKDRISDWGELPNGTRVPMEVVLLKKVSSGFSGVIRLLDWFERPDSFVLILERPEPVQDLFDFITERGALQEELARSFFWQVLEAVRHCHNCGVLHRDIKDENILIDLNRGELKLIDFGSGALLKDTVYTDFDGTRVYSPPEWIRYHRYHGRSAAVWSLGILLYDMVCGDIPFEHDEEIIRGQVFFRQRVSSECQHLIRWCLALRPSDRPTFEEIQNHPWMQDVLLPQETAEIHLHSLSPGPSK
Test: Inhibitor binding by temperature shift assay (SYPRO Orange)
Settings: Pim-1 wild type 2 µM, compound 10 µM
# ΔTm listing for each entry below

>  <Compound>
CC(C)[C@@H](CO)Nc1ccc2ncc(-c3cccc(OC(F)(F)F)c3)n2n1

>  <ΔTm>
8.4 K

$$$$
>  <Compound>
CC(C)[C@@H](CO)Nc1ccc2ncc(-c3cccc(Cl)c3)n2n1

>  <ΔTm>
6.1 K

$$$$
>  <Compound>
CCC(CO)Nc1ccc2ncc(-c3cccc(OC(F)(F)F)c3)n2n1 (stereo not drawn)

>  <ΔTm>
7.7 K

$$$$
